Cited source for all entries: PubChem BioAssay

tested-on: Cellular tumor antigen p53 (Homo sapiens) (UniProt P04637)
Sequence (P04637 whole entry, looked up): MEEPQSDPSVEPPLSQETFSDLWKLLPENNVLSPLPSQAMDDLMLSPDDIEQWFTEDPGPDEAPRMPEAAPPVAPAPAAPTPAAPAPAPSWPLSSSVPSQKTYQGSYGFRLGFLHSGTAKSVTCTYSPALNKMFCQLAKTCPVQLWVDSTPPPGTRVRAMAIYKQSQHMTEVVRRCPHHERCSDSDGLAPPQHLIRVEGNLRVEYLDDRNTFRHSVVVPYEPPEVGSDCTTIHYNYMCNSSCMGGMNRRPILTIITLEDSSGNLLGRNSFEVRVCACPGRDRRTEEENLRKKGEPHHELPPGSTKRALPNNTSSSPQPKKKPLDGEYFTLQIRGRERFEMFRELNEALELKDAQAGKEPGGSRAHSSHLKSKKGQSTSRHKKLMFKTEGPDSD
procedure-text: kinase inhibitors altering GFP-p53 stability in HPV16-positive cells, imaging, known kinase inhibitor set, EGFP/DsRed ratio (AID 1053116);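 also: test concentration not given here; cells exposed to compounds for 24 h at 37 °C before reading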
conditions-used: stronger effect = higher value; measured here: GFP-p53 positive objects count
Would you please tag the item 1 (yes) when its EGFP object count is 4 or above, and 0 (no) when it is below?

>>> class_label("Cc1nnc(-c2ccc(C)c(-c3ccc(C(=O)Nc4cccc(C#N)c4)cc3)c2)o1")
"0 (no)"
>>> class_label("CNCC1CCn2c(c(C3=C(c4cn(C)c5ccccc45)C(=O)NC3=O)c3ccccc32)C1 (configuration not stated)")
"0 (no)"
>>> class_label("CC(C)Nc1ncc2cc(Oc3ccc(F)cc3F)c(=O)n(C)c2n1")
"0 (no)"
>>> class_label("Cc1ccc(O)cc1Nc1ccnc2cc(-c3ccccn3)ccc12")
"0 (no)"
>>> class_label("CCn1c(-c2nonc2N)nc2c(N3CCCC3)nccc21")
"0 (no)"
>>> class_label("CNC(C#Cc1c(F)ccc2c1C(=Cc1[nH]ccc1OC)C(=O)N2)CO (configuration not stated)")
"1 (yes)"
>>> class_label("COc1ccc(O)c(C(=O)c2ccc(C(=O)O[C@H]3CCCNC[C@@H]3NC(=O)c3ccncc3)cc2)c1F")
"1 (yes)"
>>> class_label("Cn1c(-c2nonc2N)nc2cnccc21")
"1 (yes)"
>>> class_label("CC(=Nc1ccc(S(N)(=O)=O)cc1)c1c(O)[nH]c2ccccc12")
"0 (no)"
>>> class_label("c1ccc(Cc2nc3ccc(Nc4ncnc5ccccc45)cc3[nH]2)cc1")
"1 (yes)"
>>> class_label("Nc1c(C(=O)c2cccc(-c3ccncc3)c2)cnn1-c1ccc(F)cc1F")
"1 (yes)"
>>> class_label("NC(=O)c1cccc(Nc2nccc(Nc3cccc(F)c3)n2)c1")
"0 (no)"
>>> class_label("O=C1NC(=O)C(c2c[nH]c3ccccc23)=C1c1c[nH]c2ccccc12")
"1 (yes)"
>>> class_label("COc1cc[nH]c1C=C1C(=O)Nc2ccc(F)c(C#CC(O)C(N)C(C)O)c21 (configuration not stated)")
"1 (yes)"
>>> class_label("Fc1ccc(-c2nn3ncccc3c2-c2ccnc(Nc3ccc4c(c3)OCCO4)n2)cc1")
"0 (no)"
>>> class_label("Cc1ccc2c(-c3ccnc(Nc4cccc(C(F)(F)F)c4)n3)c(-c3ccccc3)nn2n1")
"0 (no)"
>>> class_label("CC(C)c1ccc(-c2cc(C3CNNC3c3ccccn3)ccn2)cc1 (configuration not stated)")
"0 (no)"
>>> class_label("CS(=O)(=O)CCn1c(=O)c(Oc2ccc(F)cc2F)cc2cnc(NC3CCOCC3)nc21")
"0 (no)"
>>> class_label("CCc1cccc(NC(=O)Nc2ccc(Oc3ccc4nc(NC(=O)OC)[nH]c4c3)cc2)c1")
"1 (yes)"
>>> class_label("COc1ccc(-c2cc3c(N)ncnc3o2)cc1")
"1 (yes)"
>>> class_label("O=S1CCN(Cc2ccc(-c3ccc4ncnc(Nc5ccc(OCc6ccccc6)c(Cl)c5)c4c3)o2)CC1")
"1 (yes)"
